Dear all, this message contains IC50 results, target or system UniProt P05177.
Sequence (P05177 whole entry): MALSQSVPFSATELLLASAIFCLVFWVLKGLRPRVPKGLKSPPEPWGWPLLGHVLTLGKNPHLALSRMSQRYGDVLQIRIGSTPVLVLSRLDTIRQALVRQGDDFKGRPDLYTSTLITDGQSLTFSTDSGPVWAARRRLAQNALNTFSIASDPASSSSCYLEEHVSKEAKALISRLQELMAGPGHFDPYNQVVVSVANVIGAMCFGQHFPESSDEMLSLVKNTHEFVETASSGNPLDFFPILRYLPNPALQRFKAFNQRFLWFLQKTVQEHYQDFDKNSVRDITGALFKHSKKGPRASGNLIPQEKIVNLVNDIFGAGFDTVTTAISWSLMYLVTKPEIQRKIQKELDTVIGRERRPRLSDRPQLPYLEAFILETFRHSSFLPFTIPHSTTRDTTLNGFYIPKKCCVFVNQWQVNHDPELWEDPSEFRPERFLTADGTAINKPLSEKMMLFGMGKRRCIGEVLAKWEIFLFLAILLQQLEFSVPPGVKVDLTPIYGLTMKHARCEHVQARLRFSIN

Worked examples, 3 compounds total:
CC1(NC(=O)C(=O)c2c(Cl)c(C(=O)Nc3ccc(F)c(F)c3)c3n2CCC3)CCOCC1 = > 50 µM
C[C@]1(NC(=O)C(=O)c2c(Cl)c(C(=O)Nc3ccc(F)c(F)c3)c3n2CCC3)CC[C@@H](CC(=O)O)CC1 = > 50 µM
C[C@]1(NC(=O)C(=O)c2c(Cl)c(C(=O)Nc3cc(F)c(F)c(F)c3)c3n2CCC3)CC[C@H](CC(=O)O)CC1 = > 50 µM

Entry "C[C@]1(NC(=O)C(=O)c2c(Cl)c(C(=O)Nc3ccc(F)c(F)c3)c3n2CCC3)CC[C@H](CC(=O)O)CC1" ; assay system UniProt P05177; IC50 recorded at > 50 µM

###

# method_description: Pharmacokinetic study in Balb/c mice by oral administration and intravenous injection
# Type: in vivo
# measurement_parameters: mouse, plasma; IV (1 mg/kg), Balb/c female mice; read-out: Apparent volume of distribution Vdss
measurement_kind: Vd (L/kg)
Quick reminder: number only, in L/kg, skip the unit.

C[C@]1(NC(=O)C(=O)c2c(Cl)c(C(=O)Nc3ccc(F)c(F)c3)c3n2CCC3)CC[C@H](CC(=O)O)CC1 = 8.8

Consider the additional compound presented here.
Noted for "C[C@]1(NC(=O)C(=O)c2c(Cl)c(C(=O)Nc3cc(F)c(F)c(F)c3)c3n2CCC3)CC[C@H](CC(=O)O)CC1" : its Vd reads 3.1

###

# method_description: Pharmacokinetic study in Balb/c mice by oral administration and intravenous injection
# Type: in vivo
# measurement_parameters: mouse, plasma; IV (1 mg/kg), Balb/c female mice; read-out: Clearance CL
# Experimental: Pharmacokinetic study of the test compound in Balb/c mice by oral administration and intravenous injection: The test compound was mixed with a solution containing dimethyl sulfoxide (10%), polyethylene glycol 400 (60%) and water (30%), and the mixture was vortexed and sonicated to prepare a 0.2 mg/mL clear solution, which was filtered through a millipore filter for later use. […]
measurement_kind: clearance (mL/min/kg)
Reply with just the number (in mL/min/kg).

C[C@]1(NC(=O)C(=O)c2c(Cl)c(C(=O)Nc3ccc(F)c(F)c3)c3n2CCC3)CC[C@H](CC(=O)O)CC1 = 50.1

As a next step, examine the compound that follows.
Entry under test: "C[C@]1(NC(=O)C(=O)c2c(Cl)c(C(=O)Nc3cc(F)c(F)c(F)c3)c3n2CCC3)CC[C@H](CC(=O)O)CC1" . Its clearance was 20

###

Measured Cmax values are reported for all entries that follow.
# method_description: Pharmacokinetic study in Balb/c mice by oral administration and intravenous injection
# Assay type: in vivo
# measurement_parameters: mouse, plasma, 3 mg/kg; PO (3 mpk), Balb/c female mice; read-out: Peak concentration Cmax
// units = nM; emit number, no label

C[C@]1(NC(=O)C(=O)c2c(Cl)c(C(=O)Nc3ccc(F)c(F)c3)c3n2CCC3)CC[C@H](CC(=O)O)CC1 = 1460

We now examine a further compound.
Reported Cmax of "C[C@]1(NC(=O)C(=O)c2c(Cl)c(C(=O)Nc3cc(F)c(F)c(F)c3)c3n2CCC3)CC[C@H](CC(=O)O)CC1" : 1480

###

# method_description: Metabolic stability in liver microsomes
# Assay type: in vitro ADME
# measurement_parameters: Sprague-Dawley (SD), rat; SD rats liver microsomes
measurement_kind: CLint scaled at 1 μM

C[C@]1(NC(=O)C(=O)c2c(Cl)c(C(=O)Nc3ccc(F)c(F)c3)c3n2CCC3)CC[C@H](CC(=O)O)CC1 = < 17.3 mL/min/kg

Proceeding to the next compound to report its CLint scaled at 1 μM.
// field: CLint scaled at 1 μM; key: "C[C@]1(NC(=O)C(=O)c2c(Cl)c(C(=O)Nc3cc(F)c(F)c(F)c3)c3n2CCC3)CC[C@H](CC(=O)O)CC1" ; value = < 17.3 mL/min/kg
